- testSystem: Cytochrome P450 2C19 (Homo sapiens)
- assayMethodText: Cytochrome panel assay with activity outcomes
- runParameters: recombinant CYP, pro-luciferin dealkylation, luminescence, p450-cyp2c19; series mostly up to 57.1 µM
- Procedure: The P450 gene superfamily is involved in the metabolism and clearance of xenobiotics. This assay used various human CYP P450 isozymes to measure the dealkylation of various pro-luciferin substrates to luciferin. The luciferin is then measured by luminescence after the addition of a luciferase detection reagent. […] Inhibitors and some substrates limit the production of luciferin, and decrease measured luminescence. […] 8, Detection, 1 sec, ViewLux luminescent read […]
Out of some 16,000 compounds screened, about 5,800 (36%) were called active. Another 23% or so got no clear call; they are omitted. Calls come from the whole dose curve; as a rule, active = well fitted curve in the direction sought with a large enough effect; inconclusive = small, poorly fitted or top-dose-only effect, or effect the other way; inactive = no such curve, though single readings can be large or run the other way. This is one part of the list.
Answer with one of the outcomes given here: active, inactive

moleculesmiles=CCCn1c(/C=C/c2ccccc2)nc2ccccc21 testsystem="Cytochrome P450 2C19 (Homo sapiens)" assignedcategory=active

Exercise: Entry `O=[N+]([O-])c1ccc(C=Nc2ccc(Cl)cc2Cl)s1` : call = ?
Solution: active

----------
- testSystem: Cytochrome P450 2C19 (Homo sapiens)
- assayMethodText: Cytochrome panel assay with activity outcomes; for activity, negative = inhibition: % is set by controls: 0 for no effect and ±100 for the full control effect
- runParameters: recombinant CYP, pro-luciferin dealkylation, luminescence, p450-cyp2c19; series mostly up to 57.1 µM
Screen size: about 16,000 compounds; about 5,800 (36%) were called active. About 23% were inconclusive and are not listed. This is one part of the list.
valueKind: activity, negative = inhibition

Worked cases, activity, negative = inhibition given:
molecule=O=C(O)c1ccc(C(=O)c2ccccc2)c(C(=O)O)c1 observed="33.3% [at 11.4 µM] (inactive)"
molecule="O=C(O)NCC1CCCCC1 (tested in a mixture with another compound)" observed="-22.4% [at 11.4 µM] (inactive)"
molecule=CO[C@H]1COC(=O)[C@@H](Cc2ccccc2)NC(=O)[C@@H](C)COC(=O)C/C=C\[C@@H]1C observed="-5.86% [at 11.4 µM] (inactive)"
molecule=O=C(N/N=C1/C[C@@H](O)[C@@H](O)[C@@H]2[C@@H]3C(=O)N(Cc4ccccc4)C(=O)[C@H]3CC[C@H]12)OCc1ccccc1 observed="0.945% [at 11.4 µM] (inactive)"
molecule=COC(=O)C/C=C\[C@@H](C)[C@@H](/C=N\OC[C@@H](O)[C@H]1O[C@H]2OC(C)(C)O[C@H]2[C@@H]1O)OC observed="-19.4% [at 11.4 µM] (inactive)"
molecule=CN(CCO)Cc1ncccc1O observed="42.9% [at 11.4 µM] (inactive)"
molecule=CC(=O)OC[C@@H]1O[C@@H](O/N=C2/C[C@@H](O)[C@@H](O)[C@@H]3[C@H]4C(=O)N(c5ccc(F)cc5F)C(=O)[C@@H]4CC[C@H]23)[C@H](OC(C)=O)[C@H](OC(C)=O)[C@@H]1OC(C)=O observed="-9.07% [at 11.4 µM] (inactive)"
molecule=CC(C)(C)NC[C@@H](O)c1ccc(O)c(CO)n1 observed="27.5% [at 11.4 µM] (inactive)"
molecule=NCC(=O)Nc1ccccc1 observed="-29.3% [at 11.4 µM] (inactive)"
molecule=c1ccc(C2=NN[C@@H]3c4ccccc4-c4ccccc4N3C2)cc1 observed="-22.1% [at 11.4 µM] (inactive)"

Continue with the molecule presented below.
Exercise: Query for Cytochrome P450 2C19 (Homo sapiens): what activity, negative = inhibition does the record show for `CC1(C)[C@@H]2CC[C@]1(CC(=O)O)[C@H](Cl)C2` ?
Solution: 3.64% [at 11.4 µM] (inactive)
